Source listed as patent US20090227620A1.

Target or system: UniProt:P08842
Sequence (P08842 22-583): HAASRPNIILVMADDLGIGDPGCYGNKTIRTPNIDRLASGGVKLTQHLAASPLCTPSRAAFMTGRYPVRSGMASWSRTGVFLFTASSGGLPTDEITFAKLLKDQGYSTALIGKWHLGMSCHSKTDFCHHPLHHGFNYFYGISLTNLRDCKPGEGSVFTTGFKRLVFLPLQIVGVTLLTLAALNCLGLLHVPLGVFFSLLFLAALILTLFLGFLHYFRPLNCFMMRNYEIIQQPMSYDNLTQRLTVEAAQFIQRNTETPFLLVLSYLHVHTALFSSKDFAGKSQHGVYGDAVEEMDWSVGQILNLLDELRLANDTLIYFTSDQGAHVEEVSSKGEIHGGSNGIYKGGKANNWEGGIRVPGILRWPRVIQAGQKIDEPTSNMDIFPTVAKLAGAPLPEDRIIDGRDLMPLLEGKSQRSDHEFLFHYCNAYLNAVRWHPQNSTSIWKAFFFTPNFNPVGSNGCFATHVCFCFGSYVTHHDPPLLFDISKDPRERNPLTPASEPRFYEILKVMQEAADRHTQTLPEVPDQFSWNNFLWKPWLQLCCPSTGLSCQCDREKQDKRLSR
pIC50: −log10 of the molar value.
Recorded endpoint: pIC50

INPUT: Tell us which pIC50 value is on record for C[C@]12CC[C@@H]3c4ccc(OS(N)(=O)=O)cc4CC[C@H]3[C@@H]1CCC2=O [estrone sulfamate, estrone 3-O-sulfamate]
OUTPUT: ~7.22
